Consider the following molecules; for each one, report its composite z-score.
# subject of test: Pro-neuregulin-1, membrane-bound isoform (Homo sapiens) (UniProt Q02297)
# Sequence (Q02297 whole entry, looked up, canonical isoform): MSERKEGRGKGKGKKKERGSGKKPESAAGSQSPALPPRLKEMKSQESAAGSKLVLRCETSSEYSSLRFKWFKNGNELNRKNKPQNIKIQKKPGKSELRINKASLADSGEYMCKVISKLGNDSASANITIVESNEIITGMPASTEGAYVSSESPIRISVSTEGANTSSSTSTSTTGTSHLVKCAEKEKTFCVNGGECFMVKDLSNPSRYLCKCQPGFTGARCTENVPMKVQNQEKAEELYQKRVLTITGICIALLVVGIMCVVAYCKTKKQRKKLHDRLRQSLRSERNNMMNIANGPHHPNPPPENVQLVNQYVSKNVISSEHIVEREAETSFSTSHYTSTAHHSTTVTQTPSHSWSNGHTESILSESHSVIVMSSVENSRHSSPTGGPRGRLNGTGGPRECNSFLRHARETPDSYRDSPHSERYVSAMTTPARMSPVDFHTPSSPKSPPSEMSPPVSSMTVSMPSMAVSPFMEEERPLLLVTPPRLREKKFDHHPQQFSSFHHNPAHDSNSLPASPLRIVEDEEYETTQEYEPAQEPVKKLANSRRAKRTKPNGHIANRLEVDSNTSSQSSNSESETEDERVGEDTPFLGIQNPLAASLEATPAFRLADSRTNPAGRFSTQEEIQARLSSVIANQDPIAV
# protocol details: small molecules binding neuregulin-1 protein – biochemical, small-molecule microarray, fluorescence 635/667, psychiatric disease protein project, primary screen (AID 1075);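 note: score combines 667 nm spot fluorescence with signal to noise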
# conditions used: NRG1 binding, 635 nm fluorescence, higher = more signal
Give bare numbers.

{"columns": ["molecule", "composite z-score"],
 "data": [
  ["CC(c1ccccc1)C(O)C1C=CC2C(=O)N(c3ccccc3)C(=O)C2N1Nc1ccccc1F (centres undefined)", 1.28]
]}

Please look at the items below and tell me composite z-score for each one, in order.
1. Cc1ccc(S(=O)(=O)N2CC(C(=O)O)=CCC2c2ccccc2)cc1 (centres undefined)
2. COC(=O)[C@@]1(Cc2ccc(F)cc2)[C@H]2c3cc(C(=O)N4CCCC4)n(Cc4ccc(Cl)c(C(F)(F)F)c4)c3C[C@H]2CN1C(=O)c1ccccc1

1. -0.0288
2. 1.61

---

# protocol details: compound effects on hepatocellular carcinoma cell viability – HepG2, calcein-AM fluorescence, 48 h, basal, profiling panel (AID 1164); note: test concentration not given here
# conditions used: higher = more signal
Criterion: z-score meeting or surpassing -0.3. Met: Condition met. Not met: Condition not met.

Solved cases (5 shown):
{"columns": ["compound", "answer label"],
 "data": [
  ["COCCOC(=O)N1C(=O)[C@@]2(c3cc(C#Cc4ccc(OC)cc4)ccc31)[C@H](c1ccc(OCCO)cc1)N1[C@H](c3ccccc3)[C@H](c3ccccc3)OC(=O)[C@H]1[C@@H]2C(=O)N1CCc2cc(OC)c(OC)cc2C1", "Condition met"],
  ["COc1cc(CO)cc(I)c1O[C@H]1C=C(C(=O)NCCO)C[C@@H](N(CCc2cccc(F)c2)C(=O)CCC2CCCC2)[C@@H]1O", "Condition not met"],
  ["COc1ccc(C(=O)Nc2cccc(CN3C(=O)[C@@]4(O[C@@H](CC(=O)N5Cc6ccccc6C[C@H]5CO)[C@H]([Si](C)(C)c5ccc(OC)cc5)[C@H]4C)c4ccccc43)c2)cc1", "Condition not met"],
  ["CCCC[C@@H]1C[C@H]1[C@@H](NC(=O)c1ccco1)c1ccccc1", "Condition not met"],
  ["C=CCN1C(=O)[C@@]2(O[C@@H](CCO)[C@H]([Si](C)(C)c3ccc(OC)cc3)[C@H]2C)c2cc(NC(C)=O)ccc21", "Condition not met"]
]}

State whether the measured z-score reaches -0.3, counting equality as reaching it, for COc1ccc([Si](C)(C)[C@H]2[C@H](CCO)O[C@@]3(C(=O)N(Cc4cccc(N5C(=O)c6cccc7cccc5c67)c4)c4ccccc43)[C@@H]2C)cc1
Condition not met

State whether the measured z-score reaches -0.3, counting equality as reaching it, for C=CCCN(CC#C[C@H]1Oc2ccccc2S(=O)(=O)N2CCC[C@@H]12)S(=O)(=O)c1ccc(C)cc1
Condition not met

State whether the measured z-score reaches -0.3, counting equality as reaching it, for [N-]=[N+]=NCc1ccccc1C[C@]1(C(=O)NCC(O)CO)COC(c2ccc(OCCCO)cc2)=N1 (some centres undefined)
Condition met

State whether the measured z-score reaches -0.3, counting equality as reaching it, for C=CC[C@]1(C(=O)NCCN2CCOCC2)N=C(c2ccc(OCCCO)cc2)O[C@H]1c1ccccc1N=[N+]=[N-]
Condition met

State whether the measured z-score reaches -0.3, counting equality as reaching it, for COc1ccc(CCNC(=O)[C@@]2(C)c3ccccc3C(=O)N(Cc3ccccc3)[C@H]2c2ccc(CO)cc2)cc1
Condition not met

State whether the measured z-score reaches -0.3, counting equality as reaching it, for CN(C)CCCC[C@@H]1NC(=O)[C@H]2C[C@@H](C(=O)NCCCCCNC(=O)CS)[C@@H](c3ccc(O)cc3)N2C1=O
Condition met

State whether the measured z-score reaches -0.3, counting equality as reaching it, for CO[C@H]1O[C@H](CO)[C@@H](OC(=O)Nc2ccc3c(c2)OCO3)[C@H](OC(=O)Nc2ccc3c(c2)OCO3)[C@H]1OC(=O)Nc1ccc2c(c1)OCO2
Condition not met

State whether the measured z-score reaches -0.3, counting equality as reaching it, for C=CCN1C(=O)[C@]2(Cc3ccccc31)N=C(c1ccc(OCCCO)cc1)O[C@@H]2c1ccccc1
Condition not met

---

# subject of test: E3 ubiquitin-protein ligase XIAP (Homo sapiens) (UniProt P98170)
# Sequence (P98170 whole entry, looked up): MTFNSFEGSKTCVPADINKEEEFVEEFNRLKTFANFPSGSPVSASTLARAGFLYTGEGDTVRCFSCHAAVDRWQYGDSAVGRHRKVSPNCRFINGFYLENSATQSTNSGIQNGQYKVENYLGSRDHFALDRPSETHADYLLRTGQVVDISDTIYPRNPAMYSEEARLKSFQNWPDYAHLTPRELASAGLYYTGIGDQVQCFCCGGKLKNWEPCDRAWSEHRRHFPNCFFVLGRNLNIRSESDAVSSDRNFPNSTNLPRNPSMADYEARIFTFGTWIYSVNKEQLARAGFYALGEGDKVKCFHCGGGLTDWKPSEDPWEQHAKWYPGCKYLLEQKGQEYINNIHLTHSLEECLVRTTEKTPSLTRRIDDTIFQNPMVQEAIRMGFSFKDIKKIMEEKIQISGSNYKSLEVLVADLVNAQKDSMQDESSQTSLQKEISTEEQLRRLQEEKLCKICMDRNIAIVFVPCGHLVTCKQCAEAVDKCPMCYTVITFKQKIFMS
# protocol details: small molecules binding XIAP protein – biophysical, small-molecule microarray, fluorescence 635 nm, primary screen (AID 1181);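 note: score merges 667 nm emission and signal to noise over triplicate slides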
# conditions used: higher = more signal
recorded endpoint: composite z-score
One number for each entry.

Past entries and their recorded results:
{"columns": ["compound", "subject of test", "numeric readout"],
 "data": [
  ["COc1cc2c(cc1O)C(c1ccc(CN3CCCC3)cc1)N(Cc1sc3ccccc3c1Cl)CC2 (configuration not stated)", "E3 ubiquitin-protein ligase XIAP (Homo sapiens) (UniProt P98170)", 0.0815],
  ["CO[C@H]1O[C@H](CO)[C@@H](OC(=O)Nc2cccc(F)c2)[C@H](OC(=O)Nc2ccccc2-c2ccccc2)[C@@H]1OC(=O)Nc1ccccc1-c1ccccc1", "E3 ubiquitin-protein ligase XIAP (Homo sapiens) (UniProt P98170)", 0.117],
  ["C=C(C(=O)CC[C@@H](OC(=O)c1cccnc1)c1ccc(OCCO)cc1)C(C)C", "E3 ubiquitin-protein ligase XIAP (Homo sapiens) (UniProt P98170)", -0.184],
  ["O=C1C2C=CC(C(O)c3ccc(B(O)O)cc3)N(Nc3ccc([N+](=O)[O-])cc3)C2C(=O)N1c1ccccc1 (configuration not stated)", "E3 ubiquitin-protein ligase XIAP (Homo sapiens) (UniProt P98170)", 0.0823],
  ["O=C1C[C@@](C(=O)O)(c2ccc([N+](=O)[O-])cc2)[C@@H](c2ccc(CO)cc2I)N1CC12CC3CC(CC(C3)C1)C2", "E3 ubiquitin-protein ligase XIAP (Homo sapiens) (UniProt P98170)", -0.17],
  ["C=C(C(=O)CC[C@H](OC(=O)c1cccnc1)c1ccccc1OCCO)C(C)C", "E3 ubiquitin-protein ligase XIAP (Homo sapiens) (UniProt P98170)", -0.0994]
]}

Alright, here's another compound for you.
Check the records and state composite z-score for NC(=O)NCC#Cc1ccc2c(c1)[C@]1(C(=O)N2)[C@H](c2ccc(O)cc2)N2[C@H](c3ccccc3)[C@H](c3ccccc3)OC(=O)[C@H]2[C@@H]1C(=O)N1CCN(c2ncccn2)CC1
-0.0004

---

# System: Lefty1
# protocol details: Lefty1 protein binding to printed compounds – biochemical, small-molecule microarray, 635/667 nm fluorescence, primary screen (AID 1139)
# conditions used: fluorescence 635/667, higher = more signal
Criterion: composite z-score meeting or surpassing 0.2. Met: label 1. Not met: label 0.

Solved cases (5 shown):
{"columns": ["compound", "answer label"],
 "data": [
  ["COCCOC(=O)N1C(=O)[C@@]2(c3cc(C#Cc4ccc(OC)cc4)ccc31)[C@H](c1ccc(OCCO)cc1)N1[C@H](c3ccccc3)[C@H](c3ccccc3)OC(=O)[C@H]1[C@@H]2C(=O)N1CCc2cc(OC)c(OC)cc2C1", "label 1"],
  ["COC(=O)c1nc2oc1CC[C@@H](CO)NC(=O)N(C)Cc1cn(nn1)C[C@H](Cc1ccccc1)NC2=O", "label 0"],
  ["C=C[C@H](C)[C@H](OC(=O)Nc1ccc(OC)cc1)c1ccc(O)c2ccccc12", "label 1"],
  ["CCCCN1CC=CC23O[C@@H]4C=CCCOC(=O)C4[C@H]2C(=O)N(CCCO)[C@@H]3C1=O (some centres not stated)", "label 0"],
  ["O=C1O[C@@H](c2ccccc2)[C@@H](c2ccccc2)N2[C@@H](c3ccccc3OCCO)[C@]3(C(=O)Nc4ccc(C#CC5(O)CCCCCC5)cc43)[C@@H](C(=O)NC[C@H](O)c3ccccc3)[C@H]12", "label 1"]
]}

State whether the measured composite z-score reaches 0.2, counting equality as reaching it, for Cc1ccc(S[C@]2(C(=O)NCc3ccccc3)CC(=O)N(Cc3cc(C(F)(F)F)cc(C(F)(F)F)c3)[C@@H]2c2ccc(CO)cc2)cc1
label 0

---

# Test system: Sam68 (KHDRBS1)
# protocol details: compounds binding KHDRBS1 protein – biochemical, small-molecule microarray, 635 nm fluorescence, primary screen (AID 1125);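 note: score merges 667 nm channel intensity with signal to noise over triplicate slides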
# conditions used: higher = more signal
Consider the following compounds; for each one, report its composite z-score.
One number for each entry.

{"columns": ["compound", "subject of test", "composite z-score"],
 "data": [
  ["COCCn1c(C(=O)N2CCCC2)cc2c1C[C@H]1CN(C(=O)c3ccccc3)[C@@](Cc3ccc(OC)cc3)(C(=O)OC)[C@@H]21", "Sam68 (KHDRBS1)", 0.424],
  ["CC(=O)N1Cc2ccccc2C[C@@]2(N=C(c3ccc(OCCCO)cc3)O[C@H]2c2ccccc2)C1=O", "Sam68 (KHDRBS1)", 1.3],
  ["Cc1ccc(N2C(=O)c3ccccc3[C@](C)(C(=O)NCCN3CCOCC3)[C@@H]2c2ccc(CO)cc2)nc1", "Sam68 (KHDRBS1)", -1.39]
]}

Alright, here's another compound for you.
Check the records and state composite z-score for CN1C(=O)C2C=CC(C(O)C(C)(C)C)N(Nc3ccccc3)C2C1=O (centres undefined)
-0.141
